biological target: Calmodulin-1 (Homo sapiens) (UniProt P0DP23); experiment: CALM1 binders on microarrays, EGTA buffer, profiling panel, biochemical, small-molecule microarray, Cy5-labelled CALM1 (AID 1111); settings: Cy5-CALM1 binding fluorescence, higher = more signal;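 further: labelled calmodulin applied in Tris saline Tween buffer holding calcium plus EGTA and DTT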
Record form. Attribute: composite z-score. Fill in for each entry.
Returns: the value as a bare number; no unit string appended.

Notebook: pull reported composite z-score for Calmodulin-1 (Homo sapiens) (UniProt P0DP23), entry O=C1OCC=C[C@H]2OC34C=CCN(Cc5ccccc5)C(=O)[C@H]3N(CCO)C(=O)[C@@H]4[C@@H]12 (some centres undefined)
-0.289

Next compound up: CCC1=C2CN(Cc3ccccc3Br)[C@@H]([C@@H](O)Cc3ccccc3)C2C=CCC1 (some centres undefined)
0.417

What do we get for CC(C)CNC(=O)[C@@]1(C)c2ccccc2C(=O)N(Cc2ccc(OC(F)(F)F)cc2)[C@H]1c1ccc(CO)cc1 ?
-0.381

Input COc1cc(Cc2cc3c(c(CCc4ccccc4)n2)[Si](C(C)C)(C(C)C)OC3)cc(OC)c1OC
-0.358

---

Kindly state composite z-score for each of the entries shown.
target: Torsin-1A-interacting protein 1 (Homo sapiens); experiment: LAP1 binders from COS7 cell lysate, primary screen, small-molecule microarray, 635/667 nm fluorescence (AID 1116); settings: COS7-hLAP1 lysate binding, 635 nm fluorescence, higher = more signal
Lab note: jot down the number only; don't add units.

Entry C=CCNC(=O)[C@H]1[C@@H]2C(=O)O[C@@H](c3ccccc3)[C@@H](c3ccccc3)N2[C@@H](c2ccccc2OCCO)[C@]12C(=O)N(C(=O)OCCOC)c1ccc(C#CCC(C(=O)OC)C(=O)OC)cc12 has what composite z-score?
0.926

Record: C=CCNC(=O)[C@H]1[C@@H]2C(=O)O[C@@H](c3ccccc3)[C@@H](c3ccccc3)N2[C@@H](c2ccccc2OCCO)[C@]12C(=O)N(C(=O)OCCOC)c1ccc(C#CCNC(N)=O)cc12
1.23

Similarly, C=CCC(OC(C)=O)[C@@H]1[C@@H](N(Cc2ccc(-c3ccccc3)cc2)C(=O)c2ccc(-c3ccccc3)cc2)c2cc(OCCCO)ccc2N1C(=O)Cc1ccc(OC)cc1 (some centres not stated) ?
-0.209

Would you mind doing C[C@H]1COC(=O)[C@H](Cc2ccccc2)NC(=O)[C@@H](C)COC(=O)[C@H](Cc2ccccc2)NC1=O as well?
1

Further, for CO[C@H]1COC(=O)[C@H](C)NC(=O)CC=C[C@@H](C)[C@H](NS(=O)(=O)c2ccc(C)cc2)COC(=O)CC=C[C@@H]1C ?
0.368

Same read-out for COC(=O)C[C@H]1O[C@]2(C(=O)N(Cc3ccccc3)c3ccc(I)cc32)[C@@H](C)[C@@H]1[Si](C)(C)c1ccc(OC)cc1 ?
-0.267

COCCOC(=O)N1C(=O)[C@@]2(c3cc(C#CC4=CCCCC4)ccc31)[C@H](c1ccc(O)cc1)N1[C@H](c3ccccc3)[C@H](c3ccccc3)OC(=O)[C@H]1[C@@H]2C(=O)N1CCCCCCC1 , same question.
0.691

Same question, CC1CC/C=C\[C@H]2OC34C=CCN(Cn5nnc6ccccc65)C(=O)[C@H]3N(C(C)CO)C(=O)[C@@H]4C2C(=O)O1 (some centres not stated) this time
0.413

Same lookup for CCOC(=O)C[C@H]1[C@H](OC(=O)c2cc3ccccc3oc2=O)[C@@H](NC(=O)c2ccc3ccccc3c2)c2cc(OCCCO)ccc2N1C(=O)c1ccc2ccccc2n1 , please.
0.529

Now the same for O=C1O[C@@H](c2ccccc2)[C@@H](c2ccccc2)N2[C@@H](c3ccccc3OCCO)[C@]3(C(=O)Nc4ccc(C#CC5=CCCCC5)cc43)[C@@H](C(=O)O)[C@H]12
0.612

Same thing, different compound: CC[C@H]1C2=C3C(CC[C@H]4C(OC)OC[C@](C)([C@@H]34)N(C(=O)OC(C)(C)C)C2)C(CO)C1CO (some centres not stated)
2.23

Now try CC(C)NC(=O)[C@@]1(Cc2ccccc2I)c2ccccc2C(=O)N(C2CCCCC2)[C@H]1c1ccc(CO)cc1 .
0.977
